Origin of values: ChEMBL document CHEMBL1909046

IC50 data for UniProt P33261 follow.
Sequence (P33261 whole entry): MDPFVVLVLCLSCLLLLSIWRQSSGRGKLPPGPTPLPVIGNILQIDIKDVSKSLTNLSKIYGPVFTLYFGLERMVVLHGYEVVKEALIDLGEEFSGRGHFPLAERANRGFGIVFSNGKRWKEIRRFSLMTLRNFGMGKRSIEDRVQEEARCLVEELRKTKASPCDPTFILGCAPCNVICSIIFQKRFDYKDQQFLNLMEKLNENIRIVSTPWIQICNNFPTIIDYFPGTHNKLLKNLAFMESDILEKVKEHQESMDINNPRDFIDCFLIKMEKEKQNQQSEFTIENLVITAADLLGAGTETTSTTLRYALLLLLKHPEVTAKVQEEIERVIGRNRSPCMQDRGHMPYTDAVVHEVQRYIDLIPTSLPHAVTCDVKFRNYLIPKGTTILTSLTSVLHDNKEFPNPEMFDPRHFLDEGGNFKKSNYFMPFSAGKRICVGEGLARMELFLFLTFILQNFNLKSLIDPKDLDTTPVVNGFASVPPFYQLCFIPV

compound | IC50
CC(C)[C@@]1(NC(=O)[C@@H]2C[C@@H]3c4cccc5[nH]cc(c45)C[C@H]3N(C)C2)O[C@@]2(O)[C@@H]3CCCN3C(=O)[C@H](Cc3ccccc3)N2C1=O.CS(=O)(=O)O [DIHYDROERGOCRISTINE MESYLATE] | 3 µM
CC(=O)[C@@]1(O)CC[C@H]2[C@@H]3C[C@H](C)C4=CC(=O)CC[C@]4(C)[C@H]3CC[C@@]21C | 2 µM
CC(NC(C)(C)C)C(=O)c1cccc(Cl)c1 (centres undefined) | 2 µM
Cc1cccc(N(C)C(=S)Oc2ccc3ccccc3c2)c1 [TOLNAFTATE] | 3 µM

---

# study_target: UniProt:P32245
# Sequence (P32245 whole entry): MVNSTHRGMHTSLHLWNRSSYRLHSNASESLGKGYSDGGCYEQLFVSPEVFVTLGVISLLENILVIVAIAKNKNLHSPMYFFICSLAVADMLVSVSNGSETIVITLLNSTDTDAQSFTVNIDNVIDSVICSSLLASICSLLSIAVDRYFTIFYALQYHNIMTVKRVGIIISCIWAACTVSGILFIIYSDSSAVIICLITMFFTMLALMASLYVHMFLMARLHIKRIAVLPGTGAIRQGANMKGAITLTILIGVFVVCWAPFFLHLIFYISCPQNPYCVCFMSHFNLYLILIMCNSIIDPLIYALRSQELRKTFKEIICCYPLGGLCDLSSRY
# Type: cell membranes, HEK293, Membrane
# run_parameters: read-out: IC50; note: in other assays of this panel Not Active means under 50% inhibition at 10 µM

molecule | study_target | IC50 (µM)
CC/C(=C(\c1ccccc1)c1ccc(OCCN(C)C)cc1)c1ccccc1 [TAMOXIFEN] | UniProt:P32245 | 30.5

---

# study_target: Angiotensin-converting enzyme (Oryctolagus cuniculus, UniProt P12822);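 note: enzymatic inhibition of angiotensin-converting enzyme measured with FAPGG as the substrate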; note: in other assays of this panel Not Active means under 50% inhibition at 10 µM
# Sequence (P12822 whole entry): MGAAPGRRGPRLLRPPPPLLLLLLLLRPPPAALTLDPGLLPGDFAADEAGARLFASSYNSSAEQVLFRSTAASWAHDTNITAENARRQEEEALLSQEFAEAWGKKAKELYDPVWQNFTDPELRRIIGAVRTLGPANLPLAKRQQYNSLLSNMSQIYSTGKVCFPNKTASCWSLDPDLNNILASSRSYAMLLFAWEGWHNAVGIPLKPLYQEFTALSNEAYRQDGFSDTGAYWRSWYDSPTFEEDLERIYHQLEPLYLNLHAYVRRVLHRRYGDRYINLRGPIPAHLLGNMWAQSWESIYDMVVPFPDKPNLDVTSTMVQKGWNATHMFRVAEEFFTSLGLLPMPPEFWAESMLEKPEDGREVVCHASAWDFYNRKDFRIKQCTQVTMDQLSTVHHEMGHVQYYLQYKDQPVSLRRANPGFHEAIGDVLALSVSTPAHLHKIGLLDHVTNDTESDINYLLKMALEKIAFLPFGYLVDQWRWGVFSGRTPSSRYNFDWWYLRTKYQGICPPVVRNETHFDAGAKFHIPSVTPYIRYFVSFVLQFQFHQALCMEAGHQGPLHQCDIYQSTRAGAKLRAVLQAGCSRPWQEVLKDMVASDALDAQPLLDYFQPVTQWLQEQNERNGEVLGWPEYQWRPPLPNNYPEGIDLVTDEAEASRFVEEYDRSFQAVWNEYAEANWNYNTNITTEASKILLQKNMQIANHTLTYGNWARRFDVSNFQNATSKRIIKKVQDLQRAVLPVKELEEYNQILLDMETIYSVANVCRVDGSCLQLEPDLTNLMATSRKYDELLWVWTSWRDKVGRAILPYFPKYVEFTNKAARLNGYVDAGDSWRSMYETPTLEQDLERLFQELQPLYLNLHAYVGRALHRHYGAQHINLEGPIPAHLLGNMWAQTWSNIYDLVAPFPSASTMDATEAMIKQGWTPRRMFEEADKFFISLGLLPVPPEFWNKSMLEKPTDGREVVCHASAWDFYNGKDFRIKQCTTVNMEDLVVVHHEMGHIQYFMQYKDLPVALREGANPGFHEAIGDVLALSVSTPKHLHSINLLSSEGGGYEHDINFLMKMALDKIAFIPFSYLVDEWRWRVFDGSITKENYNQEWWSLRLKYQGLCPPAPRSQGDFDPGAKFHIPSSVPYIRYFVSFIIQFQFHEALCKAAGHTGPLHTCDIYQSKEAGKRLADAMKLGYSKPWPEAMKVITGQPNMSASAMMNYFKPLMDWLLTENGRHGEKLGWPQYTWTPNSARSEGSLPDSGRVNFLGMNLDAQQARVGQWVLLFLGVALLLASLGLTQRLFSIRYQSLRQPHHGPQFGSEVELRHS
# Format: tissue-based, Lung

given_smiles | IC50
CCCCN1CCCC[C@H]1C(=O)Nc1c(C)cccc1C | Not Active
OCCN(CCO)c1nc(N2CCCCC2)c2nc(N(CCO)CCO)nc(N3CCCCC3)c2n1 | Not Active
CC1(C)S[C@@H]2[C@H](NC(=O)Cc3ccccc3)C(=O)N2[C@H]1C(=O)O | Not Active

---

# study_target: UniProt A6XA80
# Sequence (A6XA80 whole entry): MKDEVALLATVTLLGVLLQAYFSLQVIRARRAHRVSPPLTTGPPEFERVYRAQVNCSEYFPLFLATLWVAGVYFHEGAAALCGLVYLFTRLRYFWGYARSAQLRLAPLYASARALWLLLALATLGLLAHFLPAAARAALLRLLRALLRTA
# Format: tissue-based, Lung

compound | IC50
Cc1ccc(-c2cc(C(F)(F)F)nn2-c2ccc(S(N)(=O)=O)cc2)cc1 [CELECOXIB] | Not Active
C[C@H](CCC(=O)O)[C@H]1CC[C@H]2[C@@H]3[C@H](O)C[C@@H]4C[C@H](O)CC[C@]4(C)[C@H]3C[C@H](O)[C@]12C [CHOLIC ACID] | Not Active
CNNCc1ccc(C(=O)NC(C)C)cc1 [PROCARBAZINE] | Not Active
Nc1nc2c(ncn2COCCO)c(=O)[nH]1 [ACYCLOVIR] | Not Active
COc1c(C)c2c(c(O)c1C/C=C(\C)CCC(=O)O)C(=O)OC2 [MYCOPHENOLIC ACID] | Not Active
CNCCc1ccccn1 [BETAHISTINE] | Not Active
N=C(N)NCCN1CCCCCCC1 [GUANETHIDINE] | Not Active
N[C@@H](Cc1ccc(O)c(O)c1)C(=O)O [LEVODOPA] | Not Active
O=c1[nH]c(=O)n([C@H]2C[C@H](O)[C@@H](CO)O2)cc1I [IDOXURIDINE] | Not Active

---

# study_target: 3-hydroxy-3-methylglutaryl-coenzyme A reductase (Homo sapiens, UniProt P04035);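 note: enzyme inhibition assay of HMG-CoA reductase using radiolabeled [14C]HMG-CoA as substrate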; note: in other assays of this panel Not Active means under 50% inhibition at 10 µM
# Sequence (P04035 whole entry): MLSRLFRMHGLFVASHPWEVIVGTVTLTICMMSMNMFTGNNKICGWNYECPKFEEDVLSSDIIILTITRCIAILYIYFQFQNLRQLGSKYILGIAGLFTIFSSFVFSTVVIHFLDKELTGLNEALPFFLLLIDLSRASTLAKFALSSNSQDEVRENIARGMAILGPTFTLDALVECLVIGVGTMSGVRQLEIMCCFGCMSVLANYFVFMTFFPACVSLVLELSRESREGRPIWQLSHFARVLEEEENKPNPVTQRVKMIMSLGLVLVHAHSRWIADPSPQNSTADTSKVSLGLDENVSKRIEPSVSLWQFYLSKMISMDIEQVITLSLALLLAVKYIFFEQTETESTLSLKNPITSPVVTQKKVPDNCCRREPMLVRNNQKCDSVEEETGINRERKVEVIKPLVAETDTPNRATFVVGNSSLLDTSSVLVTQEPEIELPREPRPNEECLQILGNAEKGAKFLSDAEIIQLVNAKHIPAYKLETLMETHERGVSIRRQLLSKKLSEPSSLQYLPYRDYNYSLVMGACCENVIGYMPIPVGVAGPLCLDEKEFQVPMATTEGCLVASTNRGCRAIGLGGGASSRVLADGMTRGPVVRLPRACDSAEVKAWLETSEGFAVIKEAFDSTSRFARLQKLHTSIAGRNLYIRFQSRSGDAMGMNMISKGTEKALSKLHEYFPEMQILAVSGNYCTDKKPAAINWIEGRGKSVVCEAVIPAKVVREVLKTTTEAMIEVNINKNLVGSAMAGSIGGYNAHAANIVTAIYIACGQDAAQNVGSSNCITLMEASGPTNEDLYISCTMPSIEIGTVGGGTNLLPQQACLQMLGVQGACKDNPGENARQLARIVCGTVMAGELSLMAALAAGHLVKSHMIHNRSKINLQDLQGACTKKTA
# Design: species or system Escherichia coli

compound | study_target | IC50
O=c1oc2ccccc2c(O)c1Cc1c(O)c2ccccc2oc1=O | 3-hydroxy-3-methylglutaryl-coenzyme A reductase (Homo sapiens, UniProt P04035) | Not Active
c1ccc(Nc2ccc(Nc3ccccc3)cc2)cc1 | 3-hydroxy-3-methylglutaryl-coenzyme A reductase (Homo sapiens, UniProt P04035) | Not Active
Cc1c(O)c(=O)ccn1C | 3-hydroxy-3-methylglutaryl-coenzyme A reductase (Homo sapiens, UniProt P04035) | Not Active
CC[C@]1(O)C[C@H]2CN(CCc3c([nH]c4ccccc34)[C@@](C(=O)OC)(c3cc4c(cc3OC)N(C=O)[C@H]3[C@@](O)(C(=O)OC)[C@H](OC(C)=O)[C@]5(CC)C=CCN6CC[C@]43[C@@H]65)C2)C1 | 3-hydroxy-3-methylglutaryl-coenzyme A reductase (Homo sapiens, UniProt P04035) | Not Active
Nc1c(Br)cc(Br)cc1CN[C@H]1CC[C@H](O)CC1 | 3-hydroxy-3-methylglutaryl-coenzyme A reductase (Homo sapiens, UniProt P04035) | Not Active
CCn1cc(C(=O)O)c(=O)c2cc(F)c(N3CCNCC3)cc21 | 3-hydroxy-3-methylglutaryl-coenzyme A reductase (Homo sapiens, UniProt P04035) | Not Active
Cc1cc(C2CCCCC2)n(O)c(=O)c1 | 3-hydroxy-3-methylglutaryl-coenzyme A reductase (Homo sapiens, UniProt P04035) | Not Active
CC1(C)O[C@@H]2C[C@H]3[C@@H]4CCC5=CC(=O)CC[C@]5(C)[C@@]4(F)[C@@H](O)C[C@]3(C)[C@]2(C(=O)CCl)O1 [HALCINONIDE] | 3-hydroxy-3-methylglutaryl-coenzyme A reductase (Homo sapiens, UniProt P04035) | Not Active
N#CC(C#N)=Cc1ccc(O)c(O)c1 | 3-hydroxy-3-methylglutaryl-coenzyme A reductase (Homo sapiens, UniProt P04035) | Not Active
CN(Cc1ccc(C(C)(C)C)cc1)Cc1cccc2ccccc12 | 3-hydroxy-3-methylglutaryl-coenzyme A reductase (Homo sapiens, UniProt P04035) | Not Active
C[C@H]1O[C@@H](O[C@H]2[C@@H](O)C[C@H](O[C@H]3[C@@H](O)C[C@H](O[C@H]4CC[C@@]5(C)[C@H](CC[C@@H]6[C@@H]5C[C@@H](O)[C@]5(C)[C@@H](C7=CC(=O)OC7)CC[C@]65O)C4)O[C@@H]3C)O[C@@H]2C)C[C@H](O)[C@@H]1O | 3-hydroxy-3-methylglutaryl-coenzyme A reductase (Homo sapiens, UniProt P04035) | Not Active
NS(=O)(=O)c1cc2c(cc1Cl)NC(C(Cl)Cl)NS2(=O)=O (stereo not drawn) [TRICHLORMETHIAZIDE] | 3-hydroxy-3-methylglutaryl-coenzyme A reductase (Homo sapiens, UniProt P04035) | Not Active
CC(C)[C@H]1C(=O)N2CCC[C@H]2[C@]2(O)O[C@](NC(=O)[C@@H]3C=C4c5cccc6[nH]cc(c56)C[C@H]4N(C)C3)(C(C)C)C(=O)N12 | 3-hydroxy-3-methylglutaryl-coenzyme A reductase (Homo sapiens, UniProt P04035) | Not Active
Clc1cccc(Cl)c1NC1=NCCN1 | 3-hydroxy-3-methylglutaryl-coenzyme A reductase (Homo sapiens, UniProt P04035) | Not Active
CCC(C)n1ncn(-c2ccc(N3CCN(c4ccc(OCC5COC(Cn6cncn6)(c6ccc(Cl)cc6Cl)O5)cc4)CC3)cc2)c1=O (stereo not drawn) | 3-hydroxy-3-methylglutaryl-coenzyme A reductase (Homo sapiens, UniProt P04035) | Not Active
Nc1nc2nc[nH]c2c(=S)[nH]1 | 3-hydroxy-3-methylglutaryl-coenzyme A reductase (Homo sapiens, UniProt P04035) | Not Active
Cc1nc2n(c(=O)c1CCN1CCC(c3noc4cc(F)ccc34)CC1)CCCC2 | 3-hydroxy-3-methylglutaryl-coenzyme A reductase (Homo sapiens, UniProt P04035) | Not Active
NC[C@H]1CC[C@H](C(=O)O)CC1 | 3-hydroxy-3-methylglutaryl-coenzyme A reductase (Homo sapiens, UniProt P04035) | Not Active
Cc1onc(-c2ccccc2Cl)c1C(=O)N[C@@H]1C(=O)N2[C@@H]1SC(C)(C)[C@@H]2C(=O)O | 3-hydroxy-3-methylglutaryl-coenzyme A reductase (Homo sapiens, UniProt P04035) | Not Active
O=c1[nH]c(=O)n([C@H]2C[C@H](O)[C@@H](CO)O2)cc1I | 3-hydroxy-3-methylglutaryl-coenzyme A reductase (Homo sapiens, UniProt P04035) | Not Active
CC(C)(Oc1ccc(Cl)cc1)C(=O)O | 3-hydroxy-3-methylglutaryl-coenzyme A reductase (Homo sapiens, UniProt P04035) | Not Active
COCCc1ccc(OCC(O)CNC(C)C)cc1 (stereo not drawn) | 3-hydroxy-3-methylglutaryl-coenzyme A reductase (Homo sapiens, UniProt P04035) | Not Active
CC1Cc2ccccc2N1NC(=O)c1ccc(Cl)c(S(N)(=O)=O)c1 (stereo not drawn) [INDAPAMIDE] | 3-hydroxy-3-methylglutaryl-coenzyme A reductase (Homo sapiens, UniProt P04035) | Not Active
Cn1ccnc1S | 3-hydroxy-3-methylglutaryl-coenzyme A reductase (Homo sapiens, UniProt P04035) | Not Active
Cc1ccc(-c2cc(C(F)(F)F)nn2-c2ccc(S(N)(=O)=O)cc2)cc1 | 3-hydroxy-3-methylglutaryl-coenzyme A reductase (Homo sapiens, UniProt P04035) | Not Active
CC1=C2C(=CO[C@H](C)[C@H]2C)C(O)=C(C(=O)O)C1=O | 3-hydroxy-3-methylglutaryl-coenzyme A reductase (Homo sapiens, UniProt P04035) | Not Active
C=CCC1(C(C)CCC)C(=O)NC(=O)NC1=O (stereo not drawn) | 3-hydroxy-3-methylglutaryl-coenzyme A reductase (Homo sapiens, UniProt P04035) | Not Active
N[C@@H](Cc1ccc(N(CCCl)CCCl)cc1)C(=O)O | 3-hydroxy-3-methylglutaryl-coenzyme A reductase (Homo sapiens, UniProt P04035) | Not Active
CC1(C)O[C@@H]2C[C@H]3[C@@H]4CCC5=CC(=O)C=C[C@]5(C)[C@@]4(F)[C@@H](O)C[C@]3(C)[C@]2(C(=O)CO)O1 [TRIAMCINOLONE ACETONIDE] | 3-hydroxy-3-methylglutaryl-coenzyme A reductase (Homo sapiens, UniProt P04035) | Not Active
CC(=O)[C@@]1(O)CC[C@H]2[C@@H]3C[C@H](C)C4=CC(=O)CC[C@]4(C)[C@H]3CC[C@@]21C | 3-hydroxy-3-methylglutaryl-coenzyme A reductase (Homo sapiens, UniProt P04035) | Not Active
CC/C(=C(\c1ccccc1)c1ccc(OCCN(C)C)cc1)c1ccccc1 | 3-hydroxy-3-methylglutaryl-coenzyme A reductase (Homo sapiens, UniProt P04035) | Not Active
COc1c(C)c2c(c(O)c1C/C=C(\C)CCC(=O)O)C(=O)OC2 | 3-hydroxy-3-methylglutaryl-coenzyme A reductase (Homo sapiens, UniProt P04035) | Not Active
C1CCC(C(CC2CCCCN2)C2CCCCC2)CC1 (stereo not drawn) | 3-hydroxy-3-methylglutaryl-coenzyme A reductase (Homo sapiens, UniProt P04035) | Not Active
